test_target: LAP2, Q96RT1
Sequence (Q96RT1 other isoform, or with tags, fused parts or gaps): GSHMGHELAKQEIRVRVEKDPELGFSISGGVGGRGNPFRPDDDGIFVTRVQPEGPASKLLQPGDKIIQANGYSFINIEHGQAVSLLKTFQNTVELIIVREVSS
assay_text: holdup assay
Set-up: key: below the threshold = too weak to quantify, mostly under pKd 3.1 to 4
test_settings: plain residues with an end cap or a label only (N-terminal biotin on a linker: ado-ado)
value_type: pKd

Some solved cases for reference:
[[record]]
binder = "RSPVATATSC [DUSP5, Q16690]"
value_measured = "below the threshold"

[[record]]
binder = "DYSNLRETDI [ADRA1D, P25100]"
value_measured = 3.84

[[record]]
binder = "SAGADSETHC [SLCO1B1, Q9Y6L6]"
value_measured = "below the threshold"

[[record]]
binder = "SQDPKKPSRV [CBY2, Q8NA61]"
value_measured = "below the threshold"

[[record]]
binder = "EFKQTSSFLV [JAM1, Q9Y624]"
value_measured = "below the threshold"

[[record]]
binder = "PAALPESTHM [SLC9A3, P48764]"
value_measured = "below the threshold"

[[record]]
binder = "GTMFLRETSL [GUCY1A2, P33402]"
value_measured = 3.85

[[record]]
binder = "DFKHTKSFII [JAM2, P57087]"
value_measured = "below the threshold"


Lab book: pKd of PKSNSSKEYV [CLDN7, O95471] noted as below the threshold
